Data provenance: ChEMBL document CHEMBL1909046

Assay: DRUGMATRIX: Sodium/nucleoside co-transporter radioligand binding (ligand: nitrobenzylthioinosine)
Type: cell membranes, Cavia porcellus, Dunkin-Hartley, Cerebral cortex, Membrane
Conditions: Not Active = under 50% inhibition at 10 µM
assay_endpoint: IC50

Look over these answered cases.
[[record]]
compound = "COC(=O)C[C@](O)(CCC(C)(C)O)C(=O)O[C@@H]1C(OC)=C[C@]23CCCN2CCc2cc4c(cc2[C@H]13)OCO4"
data_value = "Not Active"

[[record]]
compound = "O=C(O)c1cc(/N=N/c2ccc(S(=O)(=O)Nc3ccccn3)cc2)ccc1O"
data_value = "Not Active"

[[record]]
compound = "Cc1cn([C@H]2C=C[C@@H](CO)O2)c(=O)[nH]c1=O"
data_value = "Not Active"

[[record]]
compound = "O=[As][O-].[Na+] [SODIUM ARSENITE]"
data_value = "Not Active"


IC50 lookup needed for `ClC1=C(Cl)[C@]2(Cl)[C@@H]3[C@@H]4C[C@@H]([C@H]5O[C@@H]45)[C@@H]3[C@@]1(Cl)C2(Cl)Cl` , thanks.
Not Active

IC50 for `C[C@]12CC[C@@H](O)C[C@@H]1CC[C@@H]1[C@@H]2CC[C@]2(C)C(=O)CC[C@@H]12` ?
Not Active

What IC50 value was documented for this compound, `COC(=O)Nc1nc2ccc(C(=O)c3ccccc3)cc2[nH]1` ?
Not Active

What does the data say about its IC50? Entry: `Oc1ccccc1`
Not Active

// lookup IC50 for `CCN1CCN(c2cc3c(cc2F)c(=O)c(C(=O)O)cn3C2CC2)CC1`
Not Active

Quick one: IC50 for CCN(CC)CCNC(=O)c1cc(Cl)c(N)cc1OC [METOCLOPRAMIDE] ?
Not Active

Fill in the blank: the reported IC50 of CC(C)NCC(O)COc1ccc(CC(N)=O)cc1 (stereo not drawn) is ____.
Not Active

Please give the measured IC50 for this compound: `CC(C)(C#N)c1cc(Cn2cncn2)cc(C(C)(C)C#N)c1`
Not Active

Give its IC50 value. Item: NS(=O)(=O)c1cc(C(=O)O)c(NCc2ccco2)cc1Cl [FUROSEMIDE]
Not Active

Item `CCN1CCN(C(=O)N[C@@H](C(=O)N[C@@H]2C(=O)N3[C@@H]2SC(C)(C)[C@@H]3C(=O)O)c2ccccc2)C(=O)C1=O` has what recorded IC50?
Not Active

Requested read-out: IC50. Entry: COc1ccccc1OCCNCC(O)COc1cccc2[nH]c3ccccc3c12 (stereo not drawn)
Not Active

Given the compound O=C(Nc1ccc(Cl)c(Cl)c1)c1cc(Cl)cc(Cl)c1O [3,3',4',5-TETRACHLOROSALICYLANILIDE] , what is its reported IC50?
Not Active

Reported IC50 for `O=c1[nH]c2ccccc2c2ccccc12` : what is it?
Not Active

Quick check: IC50 of Cc1cccc(C)c1NC(=O)C(C)N (stereo not drawn) [TOCAINIDE] ?
Not Active

* * *

Target: Cytochrome P450 2E1 (Homo sapiens); note: in other assays of this panel Not Active means under 50% inhibition at 10 µM
Sequence (P05181 whole entry): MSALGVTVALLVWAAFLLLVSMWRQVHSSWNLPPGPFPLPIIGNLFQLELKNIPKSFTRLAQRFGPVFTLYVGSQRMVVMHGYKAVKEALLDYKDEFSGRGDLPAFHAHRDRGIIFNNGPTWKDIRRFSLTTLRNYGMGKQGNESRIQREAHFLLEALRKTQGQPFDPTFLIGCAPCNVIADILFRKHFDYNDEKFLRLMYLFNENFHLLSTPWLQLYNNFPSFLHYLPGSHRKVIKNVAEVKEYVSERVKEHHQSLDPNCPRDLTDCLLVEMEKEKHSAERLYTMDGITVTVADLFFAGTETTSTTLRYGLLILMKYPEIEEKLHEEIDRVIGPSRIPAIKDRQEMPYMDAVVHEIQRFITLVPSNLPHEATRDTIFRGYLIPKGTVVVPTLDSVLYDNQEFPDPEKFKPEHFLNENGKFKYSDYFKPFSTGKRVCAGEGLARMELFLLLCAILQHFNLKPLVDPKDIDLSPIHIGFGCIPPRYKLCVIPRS
Conditions: bti-tn-5b1-4
assay_endpoint: IC50

Take a look at these entries with their results.
[[record]]
compound = "CC12CCC(CC1=O)C2(C)C (stereo unspecified)"
data_value = "Not Active"

[[record]]
compound = "CC12CCC(CC1)C(C)(C)O2"
data_value = "Not Active"

[[record]]
compound = "CCCCCCNC(=O)n1cc(F)c(=O)[nH]c1=O"
data_value = "Not Active"

[[record]]
compound = "Cl.NC[C@H]1CC[C@H](C(=O)Oc2ccc(CCC(=O)O)cc2)CC1 [CETRAXATE HYDROCHLORIDE]"
data_value = "Not Active"

[[record]]
compound = "CCO"
data_value = "Not Active"


I'd like to know its IC50. The compound in question is COc1cc(/C=C/C(=O)O)ccc1O [FERULATE]
Not Active
